The measurements presented in this section are drawn from PubChem BioAssay.

- SYSTEM: Alpha-bungarotoxin (Bungarus multicinctus)
- TEST_METHOD_NOTES: alpha-bungarotoxin binders on microarray, profiling panel, artefact control for SMM control protein annotation, biochemical, small-molecule microarray, Alexa647 label, 635/667 nm fluorescence (AID 1117)
- STUDY_CONDITIONS: alpha-BTX-A647 binding fluorescence, higher = more signal
Mark 1.0 for reported composite z-score of -0.05 or greater; mark 0.0 for anything smaller.

[N-]=[N+]=NCc1ccccc1C[C@]1(C(=O)NCc2ccccc2)N=C(c2ccc(OCCCO)cc2)O[C@H]1c1ccccc1CN=[N+]=[N-]
1.0
O=C(NCC(F)(F)F)[C@@H]1c2ccccc2C(=O)N(CC23CC4CC(CC(C4)C2)C3)[C@H]1c1ccc(CO)cc1
0.0
CC(C)C[C@@H]1NC(=O)[C@H]2C[C@@H](C(=O)NCCCCCNC(=O)CS)[C@@H](c3ccc(O)cc3)N2C1=O
1.0
CC(C)C[C@@H]1NC(=O)[C@@]23C(=O)N[C@@H](Cc4ccccc4)C2[C@H](C)[C@@]2(C)O[C@H]2C3/C=C/C/C=C\CNC(=O)[C@@H](CC(C)C)NC1=O (some centres not stated)
1.0
O=C1c2ccccc2[C@@]2(Cc3ccccc3N(Cc3ccccc3)C2=O)[C@H](c2ccc(CO)cc2)N1Cc1ccccc1
0.0
C#CCN([C@H](/C=C/C1CC1)[C@@H](O)Cc1ccccc1)[C@@H](Cc1ccccc1)C(=O)OC
1.0
CC(C)C[C@@H]1NC(=O)[C@@H]2C[C@H](C(=O)NCCCC[N+](C)(C)C)[C@H](c3ccc(O)cc3)N2C1=O
1.0

---

- SYSTEM: Torsin-1A-interacting protein 2 (Homo sapiens)
- TEST_METHOD_NOTES: LULL1 binders on small-molecule microarray, primary screen, cell lysate, human LULL1 lysate, 635/667 nm fluorescence (AID 1092);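 note: probe is lysate of COS7 cells overexpressing human LULL1; score merges per-feature 667 nm fluorescence with signal-to-noise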
- STUDY_CONDITIONS: hLULL1 lysate binding, 635 nm fluorescence, higher = more signal
Mark Y for reported composite z-score of 3 or greater; mark N for anything smaller.

Cc1ccc(S(=O)(=O)N2[C@@H](c3ccccc3)C(C(=O)O)=CC[C@H]2c2ccc(C#N)cc2)cc1
Y
C=CCOC(=O)[C@H]1[C@@H]2C(=O)O[C@@H](c3ccccc3)[C@@H](c3ccccc3)N2[C@@H](c2ccc(OCCOC(=O)[C@H]3C[C@H]4C(=O)NCC(=O)N4[C@H]3c3ccc(O)cc3)cc2)[C@]12C(=O)Nc1ccc(I)cc12
N
CCCC[C@@H]1C[C@H]1[C@@H](NC(=O)Cc1ccccc1)c1ccc(Cl)cc1
Y
O=C(NCCO)C1=C[C@H](Oc2ccccc2I)[C@@H](O)[C@H](NCc2ccc(F)cc2)C1
N
CCC(CC)C(O)C1C=CC2C(=O)N(C)C(=O)C2N1N1CCCCC1 (configuration not stated)
Y

---

- TEST_METHOD_NOTES: small-molecule microarray binders of probe aXIP, primary screen, biochemical, NeuroSMM set, 635/667 nm fluorescence (AID 1119);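 note: probe is the protein aXip251-270 applied at 1 µg/mL to compound-printed slides; binding of probe to printed compounds measured as 667 nm fluorescence plus signal to noise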
- STUDY_CONDITIONS: higher = more signal, called active from +8 up or from −8 down
Calls of active or inactive are those of the source.
MEASURED_ATTRIBUTE: composite Z-score

C=CCC(OC(C)=O)[C@@H]1[C@@H](N(Cc2ccc(-c3ccccc3)cc2)C(=O)c2cccc3ccccc23)c2cc(OCCCO)ccc2N1C(=O)c1ccc2ccccc2c1 (stereo partly drawn)
-0.124 (inactive)
C=C(/C(=C/C[C@H](OC(=O)c1ccncc1)c1ccccc1OCCO)c1cc(C(=O)OC)ccc1OC)C(C)C
-0.104 (inactive)
C=CCNC(=O)[C@H]1[C@@H]2C(=O)O[C@@H](c3ccccc3)[C@@H](c3ccccc3)N2[C@@H](c2ccccc2OCCO)[C@]12C(=O)N(C(=O)OCCOC)c1ccccc12
-0.104 (inactive)
CC(C)C(=C=CC[C@@H](O)c1cccc(OCCO)c1)CCO
-0.137 (inactive)
C=CCOC(=O)[C@H]1[C@@H]2C(=O)O[C@@H](c3ccccc3)[C@@H](c3ccccc3)N2[C@@H](c2ccc(OCCOC(=O)[C@H]3C[C@H]4C(=O)NCC(=O)N4[C@H]3c3ccc(O)cc3)cc2)[C@]12C(=O)Nc1ccc(I)cc12
-0.0149 (inactive)
CN(C)CCCCNC(=O)[C@H]1C[C@H]2C(=O)NCC(=O)N2[C@H]1c1cccc(OCCO)c1
0.0388 (inactive)
C=C(CCCC)C(=O)CC[C@H](OC(C)=O)c1ccccc1OCCO
0.7 (inactive)
C=C(C(=O)CC[C@@H](OC(C)=O)c1cccc(OCCO)c1)C(C)C
0.566 (inactive)

---

Measured composite z-score, listed per entry.
- SYSTEM: Pro-neuregulin-1, membrane-bound isoform (Homo sapiens) (UniProt Q02297)
- Sequence (Q02297 whole entry, looked up, canonical isoform): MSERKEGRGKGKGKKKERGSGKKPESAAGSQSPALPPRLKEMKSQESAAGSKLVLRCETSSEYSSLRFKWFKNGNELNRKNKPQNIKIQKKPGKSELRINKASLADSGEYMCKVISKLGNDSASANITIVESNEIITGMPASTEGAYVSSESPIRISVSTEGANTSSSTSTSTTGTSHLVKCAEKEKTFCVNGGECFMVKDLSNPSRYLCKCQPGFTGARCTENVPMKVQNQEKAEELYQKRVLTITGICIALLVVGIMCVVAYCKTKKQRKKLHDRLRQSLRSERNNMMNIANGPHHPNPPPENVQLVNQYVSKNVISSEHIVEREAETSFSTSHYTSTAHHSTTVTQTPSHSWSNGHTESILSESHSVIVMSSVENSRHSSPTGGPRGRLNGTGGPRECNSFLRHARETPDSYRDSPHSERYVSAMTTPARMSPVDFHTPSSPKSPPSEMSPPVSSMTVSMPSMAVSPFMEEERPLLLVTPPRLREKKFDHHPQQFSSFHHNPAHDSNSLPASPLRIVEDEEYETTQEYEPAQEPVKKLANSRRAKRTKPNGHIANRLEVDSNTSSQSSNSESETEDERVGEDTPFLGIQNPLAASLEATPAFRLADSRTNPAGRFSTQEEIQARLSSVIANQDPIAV
- TEST_METHOD_NOTES: NRG1 binders on small-molecule microarrays, primary screen, psychiatric disease protein project, biochemical, small-molecule microarray, fluorescence 635/667 (AID 1075);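 note: score combines 667 nm spot fluorescence with signal to noise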
- STUDY_CONDITIONS: NRG1 binding, 635 nm fluorescence, higher = more signal
MEASURED_ATTRIBUTE: composite z-score

COCCOC(=O)N1C(=O)[C@@]2(c3cc(C#CCCO)ccc31)[C@H](c1ccccc1OCCO)N1[C@H](c3ccccc3)[C@H](c3ccccc3)OC(=O)[C@H]1[C@@H]2C(=O)N1CCc2cc(OC)c(OC)cc2C1
1.21
CN(C)C(=O)[C@]1(Cc2ccccc2)N=C(c2ccc(OCCCO)cc2)O[C@@H]1c1ccccc1
1.78
[N-]=[N+]=NCc1ccccc1C[C@]1(C(=O)N2CCOCC2)N=C(c2ccc(OCCCO)cc2)O[C@H]1c1ccccc1CN=[N+]=[N-]
2.09
CCCC=C(CCC)[C@@H](NC(=O)c1ccccc1)c1ccc(C(=O)OC)cc1
-0.0843

---

- SYSTEM: NADPH oxidase 2 (Homo sapiens) (UniProt P04839)
- Sequence (P04839 whole entry, looked up): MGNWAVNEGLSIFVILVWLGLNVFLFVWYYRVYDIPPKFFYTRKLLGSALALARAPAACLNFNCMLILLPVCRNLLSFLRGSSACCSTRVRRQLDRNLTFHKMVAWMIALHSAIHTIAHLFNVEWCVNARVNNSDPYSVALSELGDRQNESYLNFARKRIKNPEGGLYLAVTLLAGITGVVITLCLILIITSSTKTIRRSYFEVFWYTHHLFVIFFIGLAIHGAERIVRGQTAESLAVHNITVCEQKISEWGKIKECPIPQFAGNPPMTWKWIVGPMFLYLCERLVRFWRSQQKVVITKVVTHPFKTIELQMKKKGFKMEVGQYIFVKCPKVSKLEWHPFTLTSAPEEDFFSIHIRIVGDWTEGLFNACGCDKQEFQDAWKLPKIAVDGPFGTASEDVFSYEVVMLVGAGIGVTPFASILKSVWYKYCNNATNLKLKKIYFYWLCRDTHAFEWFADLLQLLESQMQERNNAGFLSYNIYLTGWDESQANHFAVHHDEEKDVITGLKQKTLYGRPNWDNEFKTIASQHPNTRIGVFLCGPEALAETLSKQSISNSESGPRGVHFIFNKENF
- TEST_METHOD_NOTES: NOX2-dependent H2O2 signal modulators, primary screen, NOX inhibitor project, cell-based, HEK293-NOX2, PMA-stimulated, Amplex Red fluorescence (AID 1159); note: test concentration not given here
- STUDY_CONDITIONS: 45 min, higher = more signal, called active from +8 up or from −8 down
Measured z-score, listed per entry.
MEASURED_ATTRIBUTE: z-score

Cc1c(NC(=O)/C(C#N)=C/c2ccc(Cl)cc2)c(=O)n(-c2ccccc2)n1C
-2.29
Cc1c(-c2ccc(-c3ccc(Cl)c(Cl)c3)o2)nc(-c2ccccc2)c2c1CO[Si]2(C(C)C)C(C)C
-0.545
C=CCC(OC(C)=O)[C@@H]1[C@@H](N(Cc2ccc(-c3ccccc3)cc2)C(=O)c2ccc(C)cc2)c2cc(OCCCO)ccc2N1C(=O)c1ccc2ccccc2c1 (some centres not stated)
-0.167
[N-]=[N+]=NCc1ccccc1[C@H]1OC(c2ccc(OCCCO)cc2)=N[C@@]1(Cc1ccccc1)C(=O)N1CCOCC1
-0.0281
COC(=O)c1c(CC[C@@H](CO)NC(=O)N[C@@H](Cc2ccccc2)Cn2cc(-c3cncn3C)nn2)oc(C(C)=O)c1C(=O)OC
-5.64
COc1ccc(C(O)C2C=CC3C(=O)N(C)C(=O)C3N2Nc2ccc([N+](=O)[O-])cc2[N+](=O)[O-])cc1OCc1ccccc1 (configuration not stated)
0.0939
NC(=O)NCC#Cc1ccc2c(c1)[C@]1(C(=O)N2)[C@H](C(=O)Nc2nc3ccccc3s2)[C@H]2C(=O)O[C@H](c3ccccc3)[C@H](c3ccccc3)N2[C@@H]1c1ccc(OCCO)cc1
0.681

---

- TEST_METHOD_NOTES: binders of probe aFST on microarray, primary screen, stem cell growth factor project, biochemical, small-molecule microarray, fluorescence 635/667 (AID 1086);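 note: score merges 667 nm fluorescence with signal-to-noise of each printed compound spot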
- STUDY_CONDITIONS: higher = more signal
Measured composite z-score, listed per entry.
MEASURED_ATTRIBUTE: composite z-score

CC(=O)c1ccc(C(O)C2C=CC3C(=O)N(C)C(=O)C3N2NC(=O)OC(C)(C)C)cc1 (configuration not stated)
0.948
CN(C)C(=O)[C@@]1(CCS(=O)(=O)c2ccccc2)N=C(c2ccc(OCCCO)cc2)O[C@H]1c1ccccc1N=[N+]=[N-]
1.49
C=CCOC(=O)[C@H]1[C@@H]2C(=O)O[C@@H](c3ccccc3)[C@@H](c3ccccc3)N2[C@@H](c2ccc(OCCOC(=O)[C@@H]3C[C@@H]4C(=O)N[C@@H](Cc5ccccc5)C(=O)N4[C@@H]3c3ccc(O)cc3)cc2)[C@]12C(=O)Nc1ccccc12
-0.121
C[N+](C)(C)CCCC[C@@H]1NC(=O)[C@H]2C[C@@H](C(=O)NCCCCCNC(=O)CS)[C@@H](c3ccc(O)cc3)N2C1=O
0.104
CC1(C)OC[C@@]23C=C(Br)[C@@H](C[C@H]12)[C@@]1(CO1)C3=O
0.0965
COC(=O)[C@@]1(Cc2ccc(OC)cc2)[C@H]2c3cc(C(=O)N(C)C)n(Cc4ccsc4Br)c3C[C@H]2CN1C(=O)c1ccccc1
0.45
Cc1ccccc1C(O)C1C=CC2C(=O)N(c3ccccc3)C(=O)C2N1Nc1ccccc1F (configuration not stated)
1.19
